B1: TPR t1 (parent)
chain: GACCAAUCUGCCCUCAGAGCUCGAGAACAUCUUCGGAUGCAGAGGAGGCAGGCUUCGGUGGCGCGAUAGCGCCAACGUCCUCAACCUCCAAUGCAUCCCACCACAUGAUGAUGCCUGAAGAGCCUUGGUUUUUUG

- Variants of: B1
- run-description: polymerase ribozyme fitness, log enrichment relative to wild type (log ratio); higher = more active; in vitro selection for triplet polymerase activity
Label Not satisfied if polymerase ribozyme fitness (log ratio) falls below -2; label Satisfied in every other case.

variant	assigned-class
C70U U116A	Not satisfied

Tell me whether polymerase ribozyme fitness (log ratio) is at least -2 here: G17U A41C G61A C89A
Not satisfied

G93U G128C , same question.
Not satisfied

Ok, now C8U C72G U87G C94U G122A
Satisfied

For A37U G61U A83G C88A then?
Not satisfied

Please answer likewise for G47U C53G C62A
Not satisfied

// repeat for U32C G60C U106A G113A C124U and report
Not satisfied

The reported numbers originate from the RNAGym collection of RNA variant scans (doi:10.1073/pnas.2313332121).
